Parameter IC50: see the listing below.
Test system: BaF3
Type: functional, cell-based
CONDITIONS USED: Mus musculus, BaF3, 72 h
Entry format: amount then unit.

[[record]]
sample_smiles = "CN1CCN(C2CCN(c3cc(Cl)c(Nc4ncc(Cl)c(Nc5ccccc5P(C)(C)=O)n4)cc3Cl)CC2)CC1"
experimental_system = "BaF3"
value_measured = "0.258 µM"

[[record]]
sample_smiles = "COc1cc(N2CCC(N3CCN(C)CC3)CC2)ccc1Nc1ncc(Cl)c(Nc2ccccc2P(C)(C)=O)n1"
experimental_system = "BaF3"
value_measured = "0.286 µM"


Note: attention shifts to another entry.
Q: // lookup IC50 for "C=CC(=O)Nc1cc(Nc2nccc(-c3cn(C)c4ccccc34)n2)c(OC)cc1N(C)CCN(C)C"
Result: 2.89 µM

----------
Parameter AUC(0-t) at 2 h: see the listing below.
ASSAY DETAILS: AUC (0 to t) in Sprague dawley rat blood at 3 mg/kg, po measured after 2 hrs
Type: ADME, organism-based
Set-up: route oral, time 2 hrs, dose 3 mg/kg
Your answer is read as ng·h/mL, so omit the unit and give the number.

[[record]]
sample_smiles = "CN1CCN(C2CCN(c3ccc(Nc4ncc(Cl)c(Nc5ccccc5P(C)(C)=O)n4)cc3Cl)CC2)CC1"
recorded_metric = "AUC(0-t) at 2 h"
value_measured = 2550


Q: // lookup AUC(0-t) at 2 h for "CN1CCN(C2CCN(c3cc(Cl)c(Nc4ncc(Cl)c(Nc5ccccc5P(C)(C)=O)n4)cc3Cl)CC2)CC1"
Result: 4550

----------
EXPERIMENTAL SYSTEM: Epidermal growth factor receptor (Homo sapiens, UniProt P00533)
Sequence (P00533 whole entry): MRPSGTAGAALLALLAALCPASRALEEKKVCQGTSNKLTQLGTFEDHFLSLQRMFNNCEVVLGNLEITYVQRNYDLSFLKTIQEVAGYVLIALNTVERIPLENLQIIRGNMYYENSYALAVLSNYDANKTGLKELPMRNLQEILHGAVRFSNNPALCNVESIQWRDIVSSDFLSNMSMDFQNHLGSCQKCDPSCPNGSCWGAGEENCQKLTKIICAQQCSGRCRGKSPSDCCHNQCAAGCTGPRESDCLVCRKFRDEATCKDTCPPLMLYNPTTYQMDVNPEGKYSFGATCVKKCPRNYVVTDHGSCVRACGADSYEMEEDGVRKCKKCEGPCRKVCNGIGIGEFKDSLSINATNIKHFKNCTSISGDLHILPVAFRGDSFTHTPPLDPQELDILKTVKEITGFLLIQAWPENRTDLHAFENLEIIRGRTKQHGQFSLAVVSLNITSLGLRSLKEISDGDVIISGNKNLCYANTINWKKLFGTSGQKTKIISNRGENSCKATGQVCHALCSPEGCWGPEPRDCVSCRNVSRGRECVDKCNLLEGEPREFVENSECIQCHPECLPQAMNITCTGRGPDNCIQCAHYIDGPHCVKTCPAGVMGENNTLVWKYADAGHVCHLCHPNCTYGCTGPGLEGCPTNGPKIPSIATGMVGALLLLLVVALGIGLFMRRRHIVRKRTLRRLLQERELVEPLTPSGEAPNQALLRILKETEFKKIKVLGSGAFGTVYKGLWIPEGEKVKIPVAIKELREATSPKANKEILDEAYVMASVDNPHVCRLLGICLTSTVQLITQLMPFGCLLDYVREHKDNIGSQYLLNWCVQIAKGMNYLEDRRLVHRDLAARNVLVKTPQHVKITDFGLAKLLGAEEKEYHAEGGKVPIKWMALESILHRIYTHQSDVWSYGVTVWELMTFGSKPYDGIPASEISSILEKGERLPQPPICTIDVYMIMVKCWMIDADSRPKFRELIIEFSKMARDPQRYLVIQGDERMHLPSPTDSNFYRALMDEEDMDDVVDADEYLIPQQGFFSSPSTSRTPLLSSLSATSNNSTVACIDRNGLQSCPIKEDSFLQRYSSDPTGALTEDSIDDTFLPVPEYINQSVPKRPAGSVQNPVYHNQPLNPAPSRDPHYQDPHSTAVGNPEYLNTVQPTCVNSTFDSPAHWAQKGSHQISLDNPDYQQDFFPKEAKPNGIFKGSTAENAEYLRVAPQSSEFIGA
RECORDED METRIC: pIC50
Entry type: numeric. Quantity: pIC50, the -log10 of concentration in molar units.

Previously resolved entries follow.
[[record]]
sample_smiles = "Cc1cc(Nc2ncc(Cl)c(Nc3ccccc3P(C)(C)=O)n2)cnc1N1CCC(N2CCN(C)CC2)CC1"
experimental_system = "Epidermal growth factor receptor (Homo sapiens, UniProt P00533)"
recorded_metric = "pIC50"
value_measured = 6.47

[[record]]
sample_smiles = "CN1CCN(C2CCN(c3ccc(Nc4ncc(Cl)c(Nc5ccccc5P(C)(C)=O)n4)cc3Cl)CC2)CC1"
experimental_system = "Epidermal growth factor receptor (Homo sapiens, UniProt P00533)"
recorded_metric = "pIC50"
value_measured = 7.42

[[record]]
sample_smiles = "CN1CCN(C2CCN(c3c(Cl)cc(Nc4ncc(Cl)c(Nc5ccccc5P(C)(C)=O)n4)cc3Cl)CC2)CC1"
experimental_system = "Epidermal growth factor receptor (Homo sapiens, UniProt P00533)"
recorded_metric = "pIC50"
value_measured = 6.52


Note: attention shifts to another entry.
Q: // lookup pIC50 for "CN1CCN(C2CCN(c3ccc(Nc4ncc(Cl)c(Nc5ccccc5P(C)(C)=O)n4)cc3OC(F)(F)F)CC2)CC1"
Result: 6.80

----------
ASSAY DETAILS: Cmax in Sprague dawley rat blood at 3 mg/kg, po measured after 2 hrs
Format: ADME, organism-based
Design: route oral, dose 3 mg/kg, time 2 hrs
RECORDED METRIC: Cmax
Entry format: amount then unit.

[[record]]
sample_smiles = "CN1CCN(C2CCN(c3cc(Cl)c(Nc4ncc(Cl)c(Nc5ccccc5P(C)(C)=O)n4)cc3Cl)CC2)CC1"
recorded_metric = "Cmax"
value_measured = "868 ng/mL"


Note: attention shifts to another entry.
Q: // lookup Cmax for "CN1CCN(C2CCN(c3ccc(Nc4ncc(Cl)c(Nc5ccccc5P(C)(C)=O)n4)cc3Cl)CC2)CC1"
Result: 470 ng/mL
